Test system: ACHN renal
Assay: NCI tumour cell line growth inhibition, 48 h
Reported metric: TGI

Quick check: TGI of `S=CN1CCCCC1` ?
> 100 µM

Quick check: TGI of CC(Cn1c2c3ccccc3ccc2c2oc(=O)c3ccccc3c21)N(C)C (stereo unspecified) ?
> 100 µM

Quick check: TGI of `Cc1cc2c(c3c1c1ccccc1n3C)C(=O)C=CC2=O` ?
> 64.6 µM

---

System: K-562 leukemia
Assay: NCI tumour cell line growth inhibition, 48 h
Reported metric: TGI

# example entries with known answers
Quick check: TGI of `Cc1ccc2c(c1)SSSSS2` ?
> 100 µM

Quick check: TGI of O=C(CCN1CCN(c2cccc(Cl)c2)CC1)N1CCc2c([nH]c3ccccc23)C1c1cccnc1 (stereo not given) ?
18.6 µM

Quick check: TGI of `CNc1ncnc(Sc2nc(N)nc3nc[nH]c23)c1[N+](=O)[O-]` ?
5.66 µM

Quick check: TGI of `COc1ccc(CN2C(=O)/C(=C\c3cc(OC)c(OC)c(OC)c3)c3cc(OC)ccc32)cc1` ?
> 35.5 µM

Continuing:
Quick check: TGI of O=C(Cn1c(=O)ccn(C2OC(CO)C(O)C2F)c1=O)c1ccc(F)cc1 (stereo not given) ?
> 100 µM

Quick check: TGI of `C=C(O)c1ccccc1C#Cc1ccccc1C(=O)OC` ?
> 10 µM

Quick check: TGI of `O=C(/C=C/c1ccco1)c1ccc(Nc2nc(Nc3ccc(F)cc3)nc(Nc3ccc(Cl)cc3)n2)cc1` ?
> 64.8 µM

Quick check: TGI of CC(C)(C)OC(=O)[N+](=N)C(=O)C1CCC(=O)N1C(=O)OCc1ccccc1 (stereo not given) ?
> 100 µM

Quick check: TGI of `CN1CCN(Cc2ccc(-c3cc4ncnc(Nc5ccc(OCc6cccc(F)c6)c(Cl)c5)c4s3)o2)CC1` ?
6.85 µM

Quick check: TGI of `CCOC(=N)CC(=O)Nc1ccc(Cl)cc1` ?
> 100 µM

Data provenance is PubChem BioAssay (NCI).
